# Test system: Arabidopsis wild-type and CesA1/CesA3/CesA6 mutant alleles
# assay_procedure: Root length of Arabidopsis wild-type and CESA mutant lines on cellulose biosynthetic inhibitors (CBI resistance)
# Assay type: in vivo
# condition_set: Arabidopsis thaliana, read-out: Concentration at which root length is 50% of wt, allele ixr1-2 (published), Col-0, CesA3 T(942)I
# Procedure: Further genetic screens aimed at identifying resistance to cellulose biosynthetic inhibitors (CBIs) were also conducted. The aim of conducting resistance screens can be to identify potential inhibitor targets. In the case of some CBIs, like isoxaben, resistance screens have been carried out using high concentrations of the inhibitor with the aim of identifying the target protein. Indeed, high resistance to isoxaben is only possible if certain CELLULOSE SYNTHASE (CESA) genes are altered by mutation. […]
endpoint_label: IC50 (nM)
Your answer is read as nM, so omit the unit and give the number.

Query: If you can, please state the reported IC50 value of CCC(C)(CC)c1cc(NC(=O)c2c(OC)cccc2OC)on1 .
Reply: 500

###

# System: Arabidopsis wild-type and CesA1/CesA3/CesA6 mutant alleles
# assay_procedure: Root length of Arabidopsis wild-type and CESA mutant lines on cellulose biosynthetic inhibitors (CBI resistance)
# Type: in vivo
# condition_set: Arabidopsis thaliana, read-out: Concentration at which root length is 50% of wt, allele fpx 2-3, Ler, CesA1 G(1009)D
endpoint_label: pIC50
// pIC50 is dimensionless: -log10 of concentration (M)

Query: Could you tell me which pIC50 is on file for NC(=O)c1nc(-c2ccccc2)n(-c2ccc(Cl)c(COCC(F)(F)C(F)(F)F)c2)n1 [Flupoxam, flupoxam] ?
Reply: 6.00

###

# System: Arabidopsis wild-type and CesA1/CesA3/CesA6 mutant alleles
# assay_procedure: Root length of Arabidopsis wild-type and CESA mutant lines on cellulose biosynthetic inhibitors (CBI resistance)
# Assay type: in vivo
# condition_set: Arabidopsis thaliana, read-out: Concentration at which root length is 50% of wt, allele ixr 2-2, Ler, CesA6 S(1002)F
# Method: Further genetic screens aimed at identifying resistance to cellulose biosynthetic inhibitors (CBIs) were also conducted. The aim of conducting resistance screens can be to identify potential inhibitor targets. In the case of some CBIs, like isoxaben, resistance screens have been carried out using high concentrations of the inhibitor with the aim of identifying the target protein. Indeed, high resistance to isoxaben is only possible if certain CELLULOSE SYNTHASE (CESA) genes are altered by mutation. […]
endpoint_label: IC50 (µM)
I only need the number, in µM, no unit after it.

Query: Provide value of IC50 for this record tested with Arabidopsis wild-type and CesA1/CesA3/CesA6 mutant alleles: CCC(C)(CC)c1cc(NC(=O)c2c(OC)cccc2OC)on1
Reply: 0.01
